System: rat neutrophils
Assay: PMA-induced superoxide anion generation in rat neutrophils
Format: cell-based
Details: PMA (3 nM)
Protocol: FMLP (0.3 μM)/CB (5 μg mL^−1) or phorbol myristate acetate (PMA) (3 nM) stimulated superoxide anion generation in rat neutrophils. […] Trifluoperazine was used in this experiment as a positive control.
pIC50: −log10 of the molar value.
READOUT NAME: pIC50

Exam item: Record lookup: for rat neutrophils, what pIC50 belongs to CC(C)=CCC1CC2(CC=C(C)C)C(=O)C(C(=O)C(C)C)(C(=O)C(C=CC(C)(C)O)=C2O)C1(C)C (stereo not shown) ?
Marked response: < 4.52
